# System: MDA-MB-468
# Assay Explanation: phospho-S6 immunofluorescence (DAPI-normalised), per-plate z-score; higher = higher phospho-S6 signal (less pathway suppression)
# Experimental Conditions: co-treatment: lapatinib 1 uM; 24 h
Counter-ions that a name gives are not always drawn.
Below, each entry is listed alongside its reported phospho-S6 immunofluorescence (z-score).
Answer as a number with no unit attached.

| Compound | phospho-S6 immunofluorescence (z-score) |
| --- | --- |
| CC(C)[C@@H](CN1CC[C@@](C)(c2cccc(O)c2)[C@@H](C)C1)NC(=O)[C@H]1Cc2ccc(O)cc2CN1 [JDTic (dihydrochloride)] (compound 10 µM) | -2.5 |
| N#Cc1c(Oc2cccc(OS(=O)(=O)CCCC(F)(F)F)c2)cccc1C(F)(F)F (compound 10 µM) | -2.85 |
| Cc1ccc2c(c1)C1(CCN(CCc3nc(-c4ccccc4)oc3C)CC1)OC(=O)N2 (compound 10 µM) | 0.85 |
| C[N+]1(C)CCCC(OC(=O)C(O)(c2ccccc2)c2ccccc2)C1 (configuration not stated) [Mepenzolate (Bromide)] (compound 10 µM) | -0.12 |
| COC(=O)C1=CCCN(C)C1 [Arecoline (hydrobromide)] (compound 10 µM) | 0.44 |
| CC(C)(C)NCC(O)c1cc(Cl)c(N)c(Cl)c1 (configuration not stated) [Clenbuterol (hydrochloride)] (compound 10 µM) | 1.64 |

Problem: Consider the compound shown here: O=Cc1cn(Cc2ccc(Cl)cc2)c2ccccc12 [Oncrasin-1] (compound 10 µM) What is its recorded phospho-S6 immunofluorescence (z-score)?
Solution: -7.38

The measured values listed here are drawn from the supplement of paper PMC7411640.
